All figures here come from PubChem BioAssay AID2685.

# protocolSummary: qHTS Assay for Lipid Storage Modulators in Drosophila S3 Cells
# details: BODIPY lipid droplet fluorescence, 18-24 h, cells fed with added oleic acid; series mostly up to 46.1 µM
About 2,100 (0.66%) of roughly 320,000 compounds were called active. About 53% were inconclusive and are not listed. Calls come from the whole dose curve; as a rule, active = well fitted inhibition curve with a large enough effect in the signal ratio, with a control signal flat (not every such curve was filed as active); inconclusive = small, poorly fitted or top-dose-only effect, or effect the other way, or a change in a side signal; inactive = flat fitted curve, though single readings scatter; the % refers to the signal ratio. Many of the other results were omitted from the sample, so actives are more common in it than they were.
Respond only with the outcome that fits, drawn from yes (active), no (inactive)

> print(dat)
                                   molecule  classlabel
1  Cc1ccc2cc(CN(Cc3ccco3)C(=S)NCC3CCCO3)c(=O)[nH]c2c1 (stereo unspecified)          no
2                      Cc1cc(=S)cc(C)n1CCCO          no
3             Cc1ccc(C)c(NC(=S)NCc2cccs2)c1          no
4  Cc1[nH]n(-c2ccccc2)c(=O)c1N=Nc1ccc(Cl)cc1         yes
5  CCCNC(=O)Cn1cnc2sc(C(=O)N3CCN(CCC)CC3)c(C)c2c1=O         yes

Inquiry: Can you look up the reported call for COc1ccc(C(=O)CSc2ccc3nnc(-c4cccnc4)n3n2)cc1 for me?
Reply text: no

Inquiry: Can you look up the reported call for CCN1CCN(C(=S)Nc2ccc(C(C)=O)cc2)CC1 for me?
Reply text: no

Inquiry: Can you look up the reported call for CCOC(=O)C1(C)NC(c2cccc(C)c2)C2C(=O)N(c3ccccc3)C(=O)C21 (stereo unspecified) for me?
Reply text: no

Inquiry: Can you look up the reported call for COc1cccc(C(=O)NC(=S)Nc2cccnc2)c1 for me?
Reply text: no

Inquiry: Can you look up the reported call for COC(=O)C1(C)NC(c2ccc(O)cc2)C2C(=O)N(c3ccc(C)cc3)C(=O)C21 (stereo unspecified) for me?
Reply text: no

Inquiry: Can you look up the reported call for CC(C)Oc1ccc(S(=O)(=O)N2CCOCC2)cc1NC(=O)C1CCCCC1 for me?
Reply text: no

###

# protocolSummary: qHTS Assay for Lipid Storage Modulators in Drosophila S3 Cells
# details: BODIPY lipid droplet fluorescence, 18-24 h, cells fed with added oleic acid; series mostly up to 46.1 µM
Hit rate of the full screen: of about 320,000 compounds, about 2,100 (0.66%) were called active. Inconclusive results (about 53%) are left out. Calls follow the shape of the dose curve; as a rule, active = well fitted inhibition curve with a large enough effect in the signal ratio, with a control signal flat (not every such curve was filed as active); inconclusive = small, poorly fitted or top-dose-only effect, or effect the other way, or a change in a side signal; inactive = flat fitted curve, though single readings scatter; the % refers to the signal ratio. The list comes from a sample in which actives are over-represented; it also holds close analogues and randomly drawn compounds.
Respond only with the outcome that fits, drawn from active, inactive

Inquiry: Can you look up the reported call for O=C1/C(=C\c2cccnc2)CN(Cc2ccccc2)C/C1=C\c1cccnc1 for me?
Reply text: active

Inquiry: Can you look up the reported call for C(=N\N1CCN(Cc2ccccc2)CC1)/c1cccnc1 for me?
Reply text: inactive

###

# protocolSummary: qHTS Assay for Lipid Storage Modulators in Drosophila S3 Cells
# details: BODIPY lipid droplet fluorescence, 18-24 h, cells fed with added oleic acid; series mostly up to 46.1 µM
About 2,100 (0.66%) of roughly 320,000 compounds were called active. Another 53% or so got no clear call; they are omitted. The call rests on the fitted dose curve; in most records, active means well fitted inhibition curve with a large enough effect in the signal ratio, with a control signal flat (not every such curve was filed as active); inconclusive means small, poorly fitted or top-dose-only effect, or effect the other way, or a change in a side signal; inactive means flat fitted curve, though single readings scatter; the % refers to the signal ratio. Many of the other results were omitted from the sample, so actives are more common in it than they were.
Respond only with the outcome that fits, drawn from true (1) for active, false (0) for inactive

Worked examples follow.
> print(dat)
                                        mol  classlabel
1     Cc1ccc(Nc2nc(N)nc(CN3CCN(C)CC3)n2)cc1    true (1)
2  Cc1ccc(S(=O)(=O)C2(C(=O)N3CCN(c4ccccc4F)CC3)CC2)cc1    true (1)
3    O=C(Nc1nc2ccccc2[nH]1)c1ccc(OC(F)F)cc1   false (0)
4             CCc1nc2scc(-c3cccs3)c2c(=O)o1   false (0)

Proceed to the following item.
Inquiry: Can you look up the reported call for CCOC(=O)[C@@H]1[C@H]2COc3ccccc3[C@@H]2N2C(=O)N(c3ccc(F)cc3)C(=O)[C@@]12C for me?
Reply text: false (0)
